Cited source for all entries: PubChem BioAssay (NCI)

Would you mind telling me the reported TGI of each entry?
- Test system: M14 melanoma
- assay-summary: NCI tumour cell line growth inhibition, 48 h

The examples below pair each entry with its known result.
{"compound": "CSc1ccc(NC(=S)NN(C)C)cc1", "TGI": "> 10 µM"}
{"compound": "N#CCCN(CCC#N)c1ccc(/C=C2\\N=C(c3ccccc3)N(NC(N)=S)C2=O)cc1", "TGI": "> 100 µM"}
{"compound": "CCOC(=O)C(C(=S)Nc1ccccc1)c1nn2c(=O)cc(C)nc2s1 (configuration not stated)", "TGI": "57.1 µM"}

List the reported TGI of each compound below.
1. CCCCCCCCCCCCOP(=O)(O)OCC(N)C(=O)O (configuration not stated)
2. CN(C)c1ccccc1CN1CCCN(Cc2ccccc2N(C)C)C1c1ccncc1
3. C1=CC=C2NCCCNC3=CC=CC=CC3=NCCCN=C2C=C1
4. CCn1cc(C(=O)O)c(=O)c2cc3c(cc21)S(=O)(=O)CC3

Reply:
1. > 100 µM
2. 8.62 µM
3. > 100 µM
4. > 100 µM

* * *

- Test system: HS 578T breast
- assay-summary: NCI tumour cell line growth inhibition, 48 h
Please go through the items and note down their GI50.

Guide cases for GI50, answers given:
{"compound": "NC(=O)c1cc(-c2ccc(F)cc2)cc(-c2ccncc2)c1N", "data-value": "5.66 µM"}
{"compound": "CCN(C(=O)c1cc(F)ccc1Oc1cncnc1N1CC2(CCN(CC3CCC(NS(=O)(=O)CC)CC3)CC2)C1)C(C)C (configuration not stated)", "data-value": "> 100 µM"}

Below are 3 compounds. Give each one its GI50.
1. Nc1nc(Cl)c(N=Nc2ccc(Cl)cc2)c(NCC2(CO)CC2)n1
2. CC[C@@H](C(=O)[C@@H](C)[C@@H](O)[C@H](C)[C@@H]1O[C@@H]([C@@H](CC)C(=O)N(CC)CC)CC[C@@H]1C)C1O[C@]2(C=CC(=O)[C@]3(CC[C@@](C)([C@H]4CC[C@](O)(CC)[C@H](C)O4)O3)O2)[C@H](C)C[C@@H]1C (some centres not stated)
3. COC(=O)C1=C(C)NC(C)=C(C(=O)OC)C1/C=C(Cl)/C=C/c1ccccc1

Reply:
1. 12.6 µM
2. 2.68 µM
3. 38.4 µM

# batch size: 2; output GI50 per entry
1. O=C(Nc1ccc2ncnc(Nc3ccc(Oc4cccc(F)c4)c(Cl)c3)c2c1)c1ccc(CNCCO)cc1
2. CN(C)c1ccc(C(Cc2ccc3ccccc3n2)Cc2ccc3ccccc3n2)cc1

Reply:
1. 1.64 µM
2. 6.22 µM

* * *

- System: MDA-N
- assay-summary: NCI tumour cell line growth inhibition, 48 h
measured-metric: TGI

{"molecule": "COCOc1c(C(O[Si](C)(C)C(C)(C)C)c2cnc(Sc3ccccc3)n2C)ccc(OC)c1OC (stereo not drawn)", "measured-metric": "TGI", "data-value": "3.34 µM"}
{"molecule": "Cc1cc(NC[C@H](O)[C@H](O)[C@H](O)CO)c(Sc2cc(=O)[nH]c(=O)[nH]2)cc1C", "measured-metric": "TGI", "data-value": "> 62.5 µM"}
{"molecule": "O=C(/C=C/c1cc(O)c(O)cc1O)OCCc1ccccc1", "measured-metric": "TGI", "data-value": "20.2 µM"}
{"molecule": "COc1ccc2oc(OC)c(CC=C(C)C)c(=O)c2c1C", "measured-metric": "TGI", "data-value": "> 100 µM"}
{"molecule": "COC(=O)C1CCC(=O)N1C(c1ccc(OC)cc1)c1ccc(OC)cc1 (stereo not drawn)", "measured-metric": "TGI", "data-value": "> 100 µM"}

The following molecules each have a reported value; give each one's TGI.
1. CCCCS(=O)(=O)CCC(N)C(=O)O (stereo not drawn)
2. Cc1cc(Cc2c(F)c(F)c(C(c3cc(C)no3)c3c(F)c(F)c(F)c(F)c3F)c(F)c2F)on1 (stereo not drawn)
3. CCOC(=O)C(=Cc1ccc(Oc2ccccc2)cc1)C(=O)OCC

Reply:
> 100 µM
15.1 µM
18.6 µM
